Study Conditions: human gut metagenome, 24 h, 2 µM; note: call rule not given here
Property: Bacterial Biotransformation

Consider the reported Bacterial Biotransformation for these molecules:
# Molecule, Bacterial Biotransformation
measured = [
    ("CC#C[C@]1(O)CC[C@H]2[C@@H]3CCC4=CC(=O)CCC4=C3[C@@H](c3ccc(N(C)C)cc3)C[C@@]21C [MIFEPRISTONE]", "Compound NOT metabolized"),
    ("CCc1cccc2c3c([nH]c12)C(CC)(CC(=O)O)OCC3 (stereo not drawn) [ETODOLAC]", "Compound metabolized"),
    ("CC(=O)OCC(CCn1cnc2cnc(N)nc21)COC(C)=O [FAMCICLOVIR]", "Compound metabolized"),
    ("Br.CN1CCC[C@@H]1Cc1c[nH]c2ccc(CCS(=O)(=O)c3ccccc3)cc12 [ELETRIPTAN HYDROBROMIDE]", "Compound NOT metabolized"),
    ("CC(NC(C)(C)C)C(=O)c1cccc(Cl)c1 (stereo not drawn) [BUPROPION]", "Compound NOT metabolized"),
    ("CCN(C)C(=O)Oc1cccc([C@H](C)N(C)C)c1.O=C(O)C(O)C(O)C(=O)O [RIVASTIGMINE TARTRATE]", "Compound NOT metabolized"),
    ("O=C1N=C([O-])NC1(c1ccccc1)c1ccccc1.[Na+] [PHENYTOIN SODIUM]", "Compound metabolized"),
]

Kindly review the next molecule as well.
Report Bacterial Biotransformation for CNCC[C@H](Oc1cccc2ccccc12)c1cccs1 [DULOXETINE] please. Compound NOT metabolized

###

Study Conditions: human gut metagenome, 24 h, 2 µM
Property: Bacterial Biotransformation

Consider the reported Bacterial Biotransformation for these compounds:
# Compound, Result
rows = [
    ("COC(=O)C(c1ccccc1)C1CCCCN1 (stereo not given) [METHYLPHENIDATE]", "Compound metabolized"),
    ("CC(C)(C)N.CCC[C@H](N[C@@H](C)C(=O)N1[C@H](C(=O)O)C[C@@H]2CCCC[C@@H]21)C(=O)OCC [PERINDOPRIL ERBUMINE]", "Compound metabolized"),
    ("CC(N)C12CC3CC(CC(C3)C1)C2 (stereo not given) [RIMANTADINE]", "Compound NOT metabolized"),
    ("Cc1nc(Nc2ncc(C(=O)Nc3c(C)cccc3Cl)s2)cc(N2CCN(CCO)CC2)n1 [DASATINIB ANHYDROUS]", "Compound metabolized"),
    ("CCOc1ccccc1OCCN[C@H](C)Cc1ccc(OC)c(S(N)(=O)=O)c1.Cl [TAMSULOSIN HYDROCHLORIDE]", "Compound metabolized"),
    ("CCOC(=O)C1=C(C)NC(C)=C(C(=O)OC)C1c1cccc([N+](=O)[O-])c1 (stereo not given) [NITRENDIPINE]", "Compound metabolized"),
    ("CCCC(C)(COC(N)=O)COC(=O)NC(C)C (stereo not given) [CARISOPRODOL]", "Compound metabolized"),
    ("CC(=O)O[C@]1(C(C)=O)CC[C@H]2[C@@H]3C=C(C)C4=CC(=O)CC[C@]4(C)[C@H]3CC[C@@]21C [MEGESTROL ACETATE]", "Compound metabolized"),
    ("CC12CC3CC(C)(C1)CC(N)(C3)C2 [MEMANTINE]", "Compound NOT metabolized"),
    ("COc1ccc2c(c1)c(CC(=O)O)c(C)n2C(=O)c1ccc(Cl)cc1 [INDOMETHACIN]", "Compound metabolized"),
]

Report Bacterial Biotransformation for O=C(NC(Cc1cc(=O)[nH]c2ccccc12)C(=O)O)c1ccc(Cl)cc1 (stereo not given) [REBAMIPIDE] please. Compound NOT metabolized

Report Bacterial Biotransformation for C#C[C@]1(OC(C)=O)CC[C@H]2[C@@H]3CCC4=C/C(=N/O)CC[C@@H]4[C@H]3CC[C@@]21CC [NORGESTIMATE] please. Compound metabolized

Report Bacterial Biotransformation for C=CC[C@@H]1/C=C(\C)C[C@H](C)C[C@H](OC)[C@H]2O[C@@](O)(C(=O)C(=O)N3CCCC[C@H]3C(=O)O[C@H](/C(C)=C/[C@@H]3CC[C@@H](O)[C@H](OC)C3)[C@H](C)[C@@H](O)CC1=O)[C@H](C)C[C@@H]2OC.O [TACROLIMUS] please. Compound metabolized

Report Bacterial Biotransformation for O=C([O-])C[C@H](O)C[C@H](O)/C=C/c1c(C2CC2)nc2ccccc2c1-c1ccc(F)cc1.O=C([O-])C[C@H](O)C[C@H](O)/C=C/c1c(C2CC2)nc2ccccc2c1-c1ccc(F)cc1.[Ca+2] [PITAVASTATIN CALCIUM] please. Compound metabolized

Report Bacterial Biotransformation for CN[C@H]1CC[C@@H](c2ccc(Cl)c(Cl)c2)c2ccccc21 [SERTRALINE] please. Compound NOT metabolized
